For each of the variants below, state its protein stability index.
B1: ATL3 (parent)
chain: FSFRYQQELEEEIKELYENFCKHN

Variants of: B1
Test: protein stability index of a GFP-peptide fusion (GPS, HEK-293T) (PSI 1-6); higher = more stable;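 also: lentivirally expressed fusions sorted by FACS into six bins by GFP to DsRed ratio, PSI derived from sequencing read proportions per bin multiplied by bin number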
Details: c terminus: a fixed tail appended
Enter a number only.

// sample Q6S , its protein stability index was 2

// sample I13Y , its protein stability index was 2.83

// sample F3W , its protein stability index was 2.82

// sample F1A , its protein stability index was 2.78

// sample F3Y , its protein stability index was 2.01

// sample Y5P , its protein stability index was 3.45

// sample H23S , its protein stability index was 2.1

// sample E11K , its protein stability index was 2.55

// sample E12L , its protein stability index was 2.74

// sample H23L , its protein stability index was 2.73

// sample K22I , its protein stability index was 2.23

// sample E8K , its protein stability index was 1.69

// sample H23K , its protein stability index was 3.21

// sample I13V , its protein stability index was 2.07

// sample L16F , its protein stability index was 2.62

// sample K14W , its protein stability index was 2.73

// sample F20V , its protein stability index was 2.02

// sample F20S , its protein stability index was 3.01

// sample F1Q , its protein stability index was 3.11

// sample E15H , its protein stability index was 2.15

// sample F1T , its protein stability index was 3.87

// sample N24T , its protein stability index was 3.13

The origin of these recorded values is the supplement of paper PMC10567573.
